- Assay system: human σ2/TMEM97 receptor (Homo sapiens, UniProt Q5BJF2)
- Sequence (Q5BJF2 whole entry): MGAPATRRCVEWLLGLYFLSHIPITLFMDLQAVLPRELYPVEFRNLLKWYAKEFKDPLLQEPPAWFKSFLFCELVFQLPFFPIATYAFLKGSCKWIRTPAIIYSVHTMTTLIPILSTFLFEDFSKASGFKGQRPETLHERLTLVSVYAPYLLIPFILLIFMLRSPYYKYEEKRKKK
- Procedure details: Binding assay to human σ2/TMEM97 receptor ([3H]-DTG, transfected HEK-293 membranes)
- Condition info: class scale, read-out: Binding σ-2 Ki
pKi: −log10 of the molar value.
Overview of recorded pKi for various molecules

Worked cases, answers included:
- Molecule: "Cc1cc(-c2nn(C)c(Cl)c2C(=O)NC2CC3(CCN(CC(C)(C)C)CC3)C2)no1 [Example 154]"
  Observed value: "6.30 to 7.00"
- Molecule: "Cc1cc(-c2nn(C)c(Cl)c2CN2CCC3(C2)CN(CCc2ccccc2)C3)no1 [Example 61]"
  Observed value: "> 7.00"
- Molecule: "Cn1nc(-c2cccc(C(F)(F)F)n2)c(C(=O)N2CCC3(CCN(CCC(C)(C)C)CC3)CC2)c1Cl [Example 180]"
  Observed value: "> 7.00"
- Molecule: "Cc1cc(-c2nn(C)c(Cl)c2C(=O)N2CCC3(CCN(CCC(C)(C)C)C3)CC2)no1 [Example 87]"
  Observed value: "> 7.00"

Q) I have this molecule here, Cc1cc(-c2nn(C)c(Cl)c2CN2CCC(CNCc3ccccc3)C2)no1 (centres unmarked) [Example 44] , and I need its recorded pKi.
A) 6.00 to 6.30

Q) Query Cc1cc(-c2nn(C)c(Cl)c2CN2CCC(NCCC(C)(C)C)C2)no1 (centres unmarked) [Example 13] next
A) 6.30 to 7.00

Q) Again, but for Cc1cc(-c2nn(C)c(Cl)c2C(=O)N2CCC[C@@H](NCCC(C)C)C2)no1 [Example 108]
A) < 6.00

Q) Next molecule up: Cc1cc(-c2nn(C)c(Cl)c2C(=O)NC2CC3(CCN(CCC(C)(C)C)CC3)C2)no1 [Example 106]
A) > 7.00

---

- Assay system: human σ1 receptor (Homo sapiens, UniProt Q99720)
- Sequence (Q99720 whole entry): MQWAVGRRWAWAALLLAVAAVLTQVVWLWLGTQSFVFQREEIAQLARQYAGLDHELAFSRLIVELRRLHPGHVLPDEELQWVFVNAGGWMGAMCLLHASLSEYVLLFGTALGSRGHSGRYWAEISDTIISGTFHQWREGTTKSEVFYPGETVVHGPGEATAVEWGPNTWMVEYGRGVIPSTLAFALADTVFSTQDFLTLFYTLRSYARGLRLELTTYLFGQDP
Assay endpoint: Ki

See these solved cases before continuing.
- Compound: "CC(C)c1cc(-c2nn(C)c(Cl)c2CN2CCCCC(NCCC(C)(C)C)C2)no1 (stereo not drawn) [Example 15]"
  Ki: "100 to 500 nM"
- Compound: "CC(C)CCNC1CCCCN(Cc2c(-c3nccn3C)nn(C)c2Cl)C1 (stereo not drawn) [Example 32]"
  Ki: "> 1000 nM"
- Compound: "CCc1cc(-c2nn(CC)c(Cl)c2C(=O)NC2CCC3(CC2)CN(CCC(C)(C)C)C3)no1 [Example 137]"
  Ki: "< 100 nM"
- Compound: "Cc1cc(-c2nn(C)c(Cl)c2C(=O)N2CCCC(CN(C)CC(C)C)C2)no1 (stereo not drawn) [Example 122]"
  Ki: "> 1000 nM"
- Compound: "Cc1cc(-c2nn(C)c(Cl)c2C(=O)N2CCCC(CNCCC(C)(C)C)C2)no1 (stereo not drawn) [Example 83]"
  Ki: "500 to 1000 nM"

// next entry
Q) Any idea what Ki was measured for CCn1nc(-c2ccon2)c(CC(=O)N2CCC3(CCN(CCC(C)(C)C)CC3)CC2)c1Cl [Example 209] ?
A) < 100 nM

---

Test system UniProtKB Q99720, pKi listed for each of the compounds.
pKi: −log10 of the molar value.

Q) State the recorded pKi for this entry: "Cc1cc(-c2nn(C)c(Cl)c2C(=O)NC2CCC3(CC2)CCN(CCC(C)(C)C)CC3)no1"
A) 6.30 to 7.00

Q) Try the compound "CCn1nc(-c2ccon2)c(C(=O)N2CCCC3(CN(CCC(C)(C)C)C3)C2)c1Cl"
A) 6.00 to 6.30

Q) "Cc1cc(-c2nn(C)c(Cl)c2CN2CCC3(CCN(CCC(C)(C)C)CC3)C2=O)no1" ?
A) 6.30 to 7.00
